Tested on: Candida albicans A9540
Assay: In vitro antifungal activity, serial agar dilution method (Table 1)
Format: cell-based
Settings: Candida albicans, A9540; Sabouraud dextrose agar (pH 7.0); 28°C for 40 hours
MEASURED_QUANTITY: MIC

Challenge: Hi! What's the reported MIC for `COc1cc(O)c2c(c1)C(=O)c1c(cc3c(c1O)-c1c(cc(C)c(C(=O)N[C@H](C)C(=O)O)c1O)[C@H](O[C@@H]1O[C@H](C)[C@H](N(C)CC(N)=O)[C@H](O[C@@H]4OC[C@@H](O)[C@H](O)[C@H]4O)[C@H]1O)[C@H]3O)C2=O` on Candida albicans A9540?
Response given: 50 µg/mL
